The reader will find reported IC50 values listed item by item below.
- test system: PD-L1 (Homo sapiens (Human))
- Sequence (Q9NZQ7 19-238): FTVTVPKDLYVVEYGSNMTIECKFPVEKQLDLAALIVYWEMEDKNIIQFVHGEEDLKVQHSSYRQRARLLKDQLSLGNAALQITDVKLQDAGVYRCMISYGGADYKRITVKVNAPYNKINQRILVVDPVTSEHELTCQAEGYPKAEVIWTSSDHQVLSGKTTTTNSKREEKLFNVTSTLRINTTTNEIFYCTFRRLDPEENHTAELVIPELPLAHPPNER

1. Cc1c(CO)cccc1-c1cccc(COc2cccc(CN)n2)c1C [Compound 7] ... > 1000 nM
2. COc1nc(OCc2cccc(-c3cccc(CO)c3C)c2C)ccc1CNC(=O)C(F)(F)F [Compound 1] ... > 1000 nM
3. COc1nc(OCc2cccc(-c3cccc(CO)c3C)c2C)ccc1N [Compound 8] ... > 1000 nM

# ---- query compound ----
### Prompt Request - read-out IC50 | tested on PD-L1 (Homo sapiens (Human)) | compound COc1nc(OCc2cccc(-c3cccc(COc4ccc(CN5CCCC5CC(=O)O)c(OC)n4)c3C)c2C)ccc1CN1CCCC1CC(=O)O (stereo not shown) [Compound 39]
### Response 10 to 100 nM
